FYI, the data here is from patent US20240132624A1.

Measured koff, listed per entry.
# Target Desc: T1, cyno FcRn/b2M (cyno, UniProt Q8SPV9 24-297; Q8SPW0 21-119, biotinylated)
# T1 construct: bought recombinant biotinylated protein (Immunitrack ITF05 or ACRO FCM-C82W5); also called cFcRn; cFcRn/cb2M
# T1 sequence (Q8SPV9 24-297 limits assumed, chain 1 of 2): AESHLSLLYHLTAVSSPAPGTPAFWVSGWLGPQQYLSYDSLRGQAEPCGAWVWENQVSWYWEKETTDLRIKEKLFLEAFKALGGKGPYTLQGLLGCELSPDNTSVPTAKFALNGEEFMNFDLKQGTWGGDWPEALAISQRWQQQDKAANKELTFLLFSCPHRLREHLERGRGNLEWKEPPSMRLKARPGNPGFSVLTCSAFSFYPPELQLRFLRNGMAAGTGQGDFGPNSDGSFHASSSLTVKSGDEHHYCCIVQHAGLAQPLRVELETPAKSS
# T1 sequence (Q8SPW0 21-119 limits assumed, chain 2 of 2): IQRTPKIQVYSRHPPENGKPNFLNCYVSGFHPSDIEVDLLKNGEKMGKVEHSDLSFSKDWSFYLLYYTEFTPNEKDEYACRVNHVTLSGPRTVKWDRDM
# Test Protocol: SPR pH 7.4;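 note: surface plasmon resonance kinetics, periplasmic extracts diluted 1:10 flowed over immobilized target at 25 °C, 120 s association then 600–3600 s dissociation, buffer with 150 mM NaCl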
# value in s⁻¹; strip the unit string

Binder	Units Text	Readout Number
T0263018B11 F29V (VHH, name in Kabat numbering, FLAG3-His6 tagged) VHH: EVQLVESGGGVVQPGGSLRLSCAASGFTVSSYAMYWVRQAPGKGLEWVSAISSGGGSTDYADSVKGRFTISRDNSKNTLYLQMNSLRPEDTALYYCAADTLYTSLTWYSYWGQGTLVTVSS	s⁻¹	0.086
T0263018B11 S52E (VHH, name in Kabat numbering, FLAG3-His6 tagged) VHH: EVQLVESGGGVVQPGGSLRLSCAASGFTFSSYAMYWVRQAPGKGLEWVSAIESGGGSTDYADSVKGRFTISRDNSKNTLYLQMNSLRPEDTALYYCAADTLYTSLTWYSYWGQGTLVTVSS	s⁻¹	0.047
T0263018B11 S100Q (VHH, name in Kabat numbering, FLAG3-His6 tagged) VHH: EVQLVESGGGVVQPGGSLRLSCAASGFTFSSYAMYWVRQAPGKGLEWVSAISSGGGSTDYADSVKGRFTISRDNSKNTLYLQMNSLRPEDTALYYCAADTLYTQLTWYSYWGQGTLVTVSS	s⁻¹	0.058

Read the next record carefully.
# return recorded koff for input T0263018B11 S100M (VHH, name in Kabat numbering, FLAG3-His6 tagged) VHH: EVQLVESGGGVVQPGGSLRLSCAASGFTFSSYAMYWVRQAPGKGLEWVSAISSGGGSTDYADSVKGRFTISRDNSKNTLYLQMNSLRPEDTALYYCAADTLYTMLTWYSYWGQGTLVTVSS 0.016
